The reported numbers originate from patent US20240174670A1.

- Tested on: TNF
- assay info: PBMC assay, TNF release after LPS stimulation
- Assay type: cell-based
- test conditions: human PBMCs, 30 min preincubation, 100 ng/ml LPS for 6 hrs, supernatant, MSD technology
Kindly supply the reported AC50 values for the records listed here.

Input: Recorded AC50 for CC(C)c1nn(CC(=O)Nc2ccc3nncn3c2)c(=O)cc1N1Cc2cc(F)cnc2C1 with TNF, please?
Output: > 20 µM

Input: Recorded AC50 for CC(C)c1nn(CC(=O)Nc2ccc3nncn3c2)c(=O)cc1N1CC(C)(F)C1 with TNF, please?
Output: > 20 µM

Input: Recorded AC50 for CCC1CCCN1c1cc(=O)n(CC(=O)Nc2ccc3nncn3c2)nc1C(C)C (stereo not drawn) with TNF, please?
Output: > 10 µM
